Data origin: PubChem BioAssay AID1347421

Biological target: Sulfhydryl oxidase 1 (Homo sapiens) (UniProt O00391)
Sequence (O00391 whole entry, looked up): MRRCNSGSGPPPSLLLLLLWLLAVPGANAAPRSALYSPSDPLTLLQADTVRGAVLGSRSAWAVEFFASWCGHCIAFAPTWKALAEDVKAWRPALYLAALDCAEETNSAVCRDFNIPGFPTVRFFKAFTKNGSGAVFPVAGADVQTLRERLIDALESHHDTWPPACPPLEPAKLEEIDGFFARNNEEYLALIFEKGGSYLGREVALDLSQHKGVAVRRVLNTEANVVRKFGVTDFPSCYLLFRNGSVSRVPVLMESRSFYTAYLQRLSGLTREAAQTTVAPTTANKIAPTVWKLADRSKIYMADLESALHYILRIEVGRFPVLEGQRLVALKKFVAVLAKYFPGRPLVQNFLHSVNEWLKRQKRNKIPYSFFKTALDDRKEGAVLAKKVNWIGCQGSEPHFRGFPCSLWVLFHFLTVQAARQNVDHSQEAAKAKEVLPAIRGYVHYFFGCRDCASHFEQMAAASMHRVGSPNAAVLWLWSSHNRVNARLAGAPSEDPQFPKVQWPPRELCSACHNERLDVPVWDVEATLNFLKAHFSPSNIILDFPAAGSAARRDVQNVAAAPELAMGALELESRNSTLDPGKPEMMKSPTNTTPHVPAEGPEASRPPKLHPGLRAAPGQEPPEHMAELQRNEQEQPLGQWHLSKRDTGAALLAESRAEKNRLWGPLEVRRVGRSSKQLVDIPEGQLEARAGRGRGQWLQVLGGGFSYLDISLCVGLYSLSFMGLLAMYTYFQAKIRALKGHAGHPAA
Assay: QSOX1 enzyme inhibitors, confirmation, biochemical, ROS-Glo luminescence, single concentration (AID 1347421);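 also: 0% = DMSO wells with enzyme and 100% = wells lacking QSOX1 enzyme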
Conditions: recombinant hQSOX1, RNase A substrate, ROS-Glo H2O2 luminescence; at 10 µM
Over roughly 1,500 compounds, “activity” has its median near 2; the lowest 2% begin near -18. The sample holds the lowest values, similar compounds and a random draw of the others, so the mix is not that of the screen.
property name: activity (%)
Quick reminder: number only, in %, skip the unit.

Below are worked cases with known answers.
compound="Cc1oc(-c2cccs2)nc1CN(C)C(C)c1cccs1 (stereo not given)" target_desc="Sulfhydryl oxidase 1 (Homo sapiens) (UniProt O00391)" val=2.7
compound=C=CCNC(=O)CCc1ccc(S(=O)(=O)NC)cc1 target_desc="Sulfhydryl oxidase 1 (Homo sapiens) (UniProt O00391)" val=-11.4
compound=Cc1cc(S(=O)(=O)n2ccnc2)c(C)c(C)c1C target_desc="Sulfhydryl oxidase 1 (Homo sapiens) (UniProt O00391)" val=-0.1

Task: Which measured activity belongs to c1ccc(Cc2nn3c(-c4cccs4)nnc3s2)cc1 , tested on Sulfhydryl oxidase 1 (Homo sapiens) (UniProt O00391)?
Result: -5.3
